# assayedSystem: 5-hydroxytryptamine receptor 2A (Homo sapiens)
# experiment: Agonistic activity at cloned human 5-hydroxytryptamine 2A receptor using [125I]DOI as radioligand
# Assay type: functional
pKi: −log10 of the molar value.

{"molecule": "CC(N)Cc1c2c(c(Br)c3c1OCC3)OCC2 (stereo unspecified)", "pKi": 9.32}

* * *

# assayedSystem: 5-hydroxytryptamine receptor 2C (Homo sapiens)
# experiment: Antagonistic activity at cloned human 5-hydroxytryptamine 2C receptor using [3H]mesulergine as radioligand
# Assay type: functional
pKi: −log10 of the molar value.
measureName: pKi

{"molecule": "CC(N)Cc1c2c(c(Br)c3c1OCC3)OCC2 (stereo unspecified)", "assayedSystem": "5-hydroxytryptamine receptor 2C (Homo sapiens)", "assayValue": 8.64}

* * *

# assayedSystem: 5-hydroxytryptamine receptor 1A (Rattus norvegicus, UniProt P19327)
# Sequence (P19327 whole entry): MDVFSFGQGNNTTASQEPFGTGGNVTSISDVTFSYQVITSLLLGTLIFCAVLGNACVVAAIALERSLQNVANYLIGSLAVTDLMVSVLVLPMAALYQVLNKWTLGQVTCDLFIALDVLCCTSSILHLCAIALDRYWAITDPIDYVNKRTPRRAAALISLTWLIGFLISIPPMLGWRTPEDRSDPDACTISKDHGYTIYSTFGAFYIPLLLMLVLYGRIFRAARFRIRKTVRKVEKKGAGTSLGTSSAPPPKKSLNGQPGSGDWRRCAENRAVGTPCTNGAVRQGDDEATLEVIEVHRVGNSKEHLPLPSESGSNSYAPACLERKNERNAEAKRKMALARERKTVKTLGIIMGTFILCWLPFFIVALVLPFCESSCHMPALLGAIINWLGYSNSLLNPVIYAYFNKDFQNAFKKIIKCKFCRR
pKi: −log10 of the molar value.
Assign class by pKi: not lower than 8 means fulfilled; lower than 8 means not fulfilled.

{"molecule": "CC(N)Cc1c2c(c(Br)c3c1OCC3)OCC2 (stereo not given)", "assayedSystem": "5-hydroxytryptamine receptor 1A (Rattus norvegicus, UniProt P19327)", "assignedLabel": "fulfilled"}
{"molecule": "NCCc1c2c(cc3c1OCC3)OCC2", "assayedSystem": "5-hydroxytryptamine receptor 1A (Rattus norvegicus, UniProt P19327)", "assignedLabel": "fulfilled"}
{"molecule": "NCCc1c2c(c(Br)c3c1OCC3)OCC2", "assayedSystem": "5-hydroxytryptamine receptor 1A (Rattus norvegicus, UniProt P19327)", "assignedLabel": "fulfilled"}
{"molecule": "CC(N)Cc1c2c(cc3c1OCC3)OCC2 (stereo not given)", "assayedSystem": "5-hydroxytryptamine receptor 1A (Rattus norvegicus, UniProt P19327)", "assignedLabel": "not fulfilled"}

* * *

# assayedSystem: 5-hydroxytryptamine receptor 2B (Homo sapiens, UniProt P41595)
# Sequence (P41595 whole entry): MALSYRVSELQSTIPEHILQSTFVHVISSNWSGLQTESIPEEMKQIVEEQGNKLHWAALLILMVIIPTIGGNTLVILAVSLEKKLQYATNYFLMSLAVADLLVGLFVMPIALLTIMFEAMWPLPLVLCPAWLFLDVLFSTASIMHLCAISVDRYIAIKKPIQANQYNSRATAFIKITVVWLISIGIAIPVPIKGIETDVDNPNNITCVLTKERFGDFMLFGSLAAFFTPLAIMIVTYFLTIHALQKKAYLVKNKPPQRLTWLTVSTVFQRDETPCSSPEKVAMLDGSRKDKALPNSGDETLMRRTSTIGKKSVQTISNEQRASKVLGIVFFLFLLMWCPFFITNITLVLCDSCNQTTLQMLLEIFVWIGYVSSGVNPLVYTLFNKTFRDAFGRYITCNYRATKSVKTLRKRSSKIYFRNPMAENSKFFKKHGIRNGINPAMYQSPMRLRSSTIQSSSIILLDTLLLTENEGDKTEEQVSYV
# experiment: Agonistic activity at cloned human 5-hydroxytryptamine 2B receptor using [3H]-5-HT as radioligand
# Type: functional
measureName: Ki (nM)

{"compound": "CC(N)Cc1c2c(c(Br)c3c1OCC3)OCC2 (stereo unspecified)", "measureName": "Ki", "assayValue": 1.6}

* * *

# assayedSystem: 5-hydroxytryptamine receptor 2B (Homo sapiens, UniProt P41595)
# experiment: Antagonistic activity at cloned human 5-hydroxytryptamine 2B receptor using [3H]rauwolscine as radioligand
# Format: functional
measureName: Ki (nM)

{"molecule": "CC(N)Cc1c2c(c(Br)c3c1OCC3)OCC2 (stereo unspecified)", "measureName": "Ki", "assayValue": 1.15}

* * *

# assayedSystem: 5-hydroxytryptamine receptor 2A (Homo sapiens, UniProt P28223)
# Sequence (P28223 whole entry): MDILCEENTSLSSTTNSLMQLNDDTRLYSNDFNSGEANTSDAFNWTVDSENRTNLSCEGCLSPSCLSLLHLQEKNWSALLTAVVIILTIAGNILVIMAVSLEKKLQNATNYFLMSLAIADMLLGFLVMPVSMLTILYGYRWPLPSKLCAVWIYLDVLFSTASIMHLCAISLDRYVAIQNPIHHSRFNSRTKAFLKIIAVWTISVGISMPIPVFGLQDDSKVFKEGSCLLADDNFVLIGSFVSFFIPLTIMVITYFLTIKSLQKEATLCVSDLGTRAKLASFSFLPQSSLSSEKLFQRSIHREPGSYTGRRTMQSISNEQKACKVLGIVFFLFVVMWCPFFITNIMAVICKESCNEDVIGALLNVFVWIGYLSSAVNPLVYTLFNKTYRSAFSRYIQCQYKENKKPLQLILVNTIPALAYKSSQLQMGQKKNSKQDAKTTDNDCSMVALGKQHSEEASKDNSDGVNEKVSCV
# experiment: Antagonistic activity at cloned human 5-hydroxytryptamine 2A receptor using [3H]ketanserin as radioligand
# Format: functional
pKi: −log10 of the molar value.

{"compound": "CC(N)Cc1c2c(c(Br)c3c1OCC3)OCC2 (stereo unspecified)", "pKi": 7.97}

* * *

Parameter Ki, tested on 5-hydroxytryptamine receptor 2A (Rattus norvegicus, UniProt P14842), listed per item.
Sequence (P14842 whole entry): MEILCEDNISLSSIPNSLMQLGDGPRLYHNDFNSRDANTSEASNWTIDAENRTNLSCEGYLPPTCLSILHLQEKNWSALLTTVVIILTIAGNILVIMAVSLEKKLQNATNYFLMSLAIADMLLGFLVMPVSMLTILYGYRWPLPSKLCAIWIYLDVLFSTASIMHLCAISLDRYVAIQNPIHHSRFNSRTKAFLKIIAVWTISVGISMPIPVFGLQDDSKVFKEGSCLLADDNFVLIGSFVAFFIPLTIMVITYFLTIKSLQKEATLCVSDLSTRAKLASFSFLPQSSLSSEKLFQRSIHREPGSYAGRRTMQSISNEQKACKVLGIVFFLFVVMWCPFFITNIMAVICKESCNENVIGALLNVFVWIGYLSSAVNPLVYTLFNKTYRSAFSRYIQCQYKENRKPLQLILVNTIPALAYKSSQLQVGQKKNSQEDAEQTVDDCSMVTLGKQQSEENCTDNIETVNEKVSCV

{"compound": "CC(N)Cc1c2c(cc3c1OCC3)OCC2 (centres undefined)", "Ki": "2010 nM"}
{"compound": "NCCc1c2c(c(Br)c3c1OCC3)OCC2", "Ki": "34 nM"}
{"compound": "CC(N)Cc1c2c(c(Br)c3c1OCC3)OCC2 (centres undefined)", "Ki": "18 nM"}
{"compound": "NCCc1c2c(cc3c1OCC3)OCC2", "Ki": "2300 nM"}

* * *

# assayedSystem: 5-hydroxytryptamine receptor 2C (Homo sapiens, UniProt P28335)
# Sequence (P28335 whole entry): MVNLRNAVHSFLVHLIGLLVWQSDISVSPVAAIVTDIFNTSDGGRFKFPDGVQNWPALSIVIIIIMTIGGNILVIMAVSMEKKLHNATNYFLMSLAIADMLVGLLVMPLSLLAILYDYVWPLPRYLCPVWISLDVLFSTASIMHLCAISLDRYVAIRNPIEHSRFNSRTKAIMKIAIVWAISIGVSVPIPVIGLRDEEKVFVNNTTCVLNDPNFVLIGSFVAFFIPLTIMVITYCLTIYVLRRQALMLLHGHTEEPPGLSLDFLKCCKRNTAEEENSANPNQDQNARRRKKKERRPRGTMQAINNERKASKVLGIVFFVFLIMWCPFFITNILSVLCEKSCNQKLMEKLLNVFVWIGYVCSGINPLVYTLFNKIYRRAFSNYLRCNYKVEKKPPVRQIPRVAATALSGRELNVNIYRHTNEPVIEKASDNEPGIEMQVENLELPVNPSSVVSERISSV
# experiment: Agonistic activity at cloned human 5-hydroxytryptamine 2C receptor using [125I]DOI as radioligand
# Type: functional
pKi: −log10 of the molar value.

{"compound": "CC(N)Cc1c2c(c(Br)c3c1OCC3)OCC2 (stereo unspecified)", "assayedSystem": "5-hydroxytryptamine receptor 2C (Homo sapiens, UniProt P28335)", "pKi": 9.52}

* * *

# Organism: Rattus norvegicus
# experiment: Effective dose for behavioral activity or hallucinogenic potential in drug discrimination studies in LSD(d-lysergic acid N,N-diethylamide) trained rats
# Assay type: functional
# Set-up: unit not given here
Cut-off 600 on ED50: below means Fulfilled, at or above means Not fulfilled.

{"compound": "COc1cc(Br)c2c(c1CC(C)N)CCO2 (stereo not given)", "assignedLabel": "Fulfilled"}
{"compound": "CC(N)Cc1c2c(c(Br)c3c1OCC3)OCC2 (stereo not given)", "assignedLabel": "Fulfilled"}
{"compound": "CC(N)Cc1c2c(cc3c1OCC3)OCC2 (stereo not given)", "assignedLabel": "Not fulfilled"}
{"compound": "NCCc1c2c(cc3c1OCC3)OCC2", "assignedLabel": "Not fulfilled"}
{"compound": "Cc1c2c(c(CC(C)N)c3c1OCC3)OCC2 (stereo not given)", "assignedLabel": "Not fulfilled"}
